Give measured IC50 for each item. Keep answers brief.
molecular target: aromatase enzyme (Homo sapiens, UniProt P11511); construct: IC50 values against aromatase enzyme in MCF-7 Br Ca cells treated with; endogenous in cells; assay: Aromatase inhibition assay (ELISA method kit); details: five concentrations
Sequence (P11511 whole entry): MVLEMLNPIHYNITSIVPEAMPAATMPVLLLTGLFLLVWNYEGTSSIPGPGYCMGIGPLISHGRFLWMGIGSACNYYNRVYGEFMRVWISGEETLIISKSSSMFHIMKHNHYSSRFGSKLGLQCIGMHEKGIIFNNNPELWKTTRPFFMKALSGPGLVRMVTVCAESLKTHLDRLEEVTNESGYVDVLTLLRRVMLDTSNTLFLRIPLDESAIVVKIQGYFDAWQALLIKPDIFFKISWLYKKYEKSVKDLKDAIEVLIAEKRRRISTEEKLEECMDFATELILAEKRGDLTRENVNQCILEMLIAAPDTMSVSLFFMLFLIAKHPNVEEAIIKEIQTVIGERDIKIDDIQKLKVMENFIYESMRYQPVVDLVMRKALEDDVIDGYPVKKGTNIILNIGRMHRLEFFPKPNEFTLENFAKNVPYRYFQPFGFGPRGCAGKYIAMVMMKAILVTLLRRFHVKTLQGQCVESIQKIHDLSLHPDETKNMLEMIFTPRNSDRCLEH
Field format: number, assumed nM, no unit text.

Incoming: I'd like to know its IC50. The compound in question is `CN(C)c1ccc(/C=C(\NC(=O)c2ccccc2)C(=O)NNC(=O)COc2cccc3ccccc23)cc1`
Outgoing: 93

Incoming: I'd like to know its IC50. The compound in question is `COc1ccc(/C=C(\NC(=O)c2ccccc2)C(=O)NNC(=O)COc2cccc3ccccc23)cc1`
Outgoing: 78

Incoming: I'd like to know its IC50. The compound in question is `O=C(COc1cccc2ccccc12)NNC(=O)/C(=C/c1ccc([N+](=O)[O-])cc1)NC(=O)c1ccccc1`
Outgoing: 143
